- target: Orexin/Hypocretin receptor type 1 (Homo sapiens)
- Sequence (O43613 whole entry): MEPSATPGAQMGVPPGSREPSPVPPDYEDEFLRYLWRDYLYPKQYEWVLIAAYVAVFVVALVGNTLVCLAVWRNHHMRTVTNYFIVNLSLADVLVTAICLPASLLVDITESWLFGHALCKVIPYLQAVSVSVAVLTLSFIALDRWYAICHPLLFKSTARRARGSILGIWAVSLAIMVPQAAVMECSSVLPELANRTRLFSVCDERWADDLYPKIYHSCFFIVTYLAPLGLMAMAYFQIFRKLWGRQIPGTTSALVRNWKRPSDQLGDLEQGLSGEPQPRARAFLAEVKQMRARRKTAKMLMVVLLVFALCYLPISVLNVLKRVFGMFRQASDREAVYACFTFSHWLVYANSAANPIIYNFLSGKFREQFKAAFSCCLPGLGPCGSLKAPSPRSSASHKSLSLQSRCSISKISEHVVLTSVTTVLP
- runDescription: Antagonist activity at human OX1 receptor expressed in […] assessed as inhibition of orexin A-induced Ca2+ elevation after 30 mins in presence of orexin A by FLIPR calcium 4 assay
pKi: −log10 of the molar value.
Label 0 (no) if pKi falls below 5; label 1 (yes) in every other case.

>>> df
                                   compound  categorylabel
0  COc1ccc(N(CC(=O)NC(C)c2ccccc2)S(=O)(=O)c2ccc(OC)c(OC)c2)cc1 (configuration not stated)         0 (no)
1  CCOC(=O)c1c(NC(=O)C(C)Sc2nnc(CNC(=O)c3cc(OC)cc(OC)c3)n2-c2ccccc2OC)sc2c1CCC2 (configuration not stated)        1 (yes)
2  O=C(CSc1nnc(-c2cccs2)n1Cc1ccco1)Nc1ccc2c(c1)OCCO2        1 (yes)
3  C=CCN1C(=O)C2(Nc3ccccc3C(=O)N2c2ccccc2OC)c2ccccc21 (configuration not stated)         0 (no)
4  Cc1cccc2c1[nH]c1nc(N/N=C\c3c4ccccc4cc4ccccc34)nnc12         0 (no)

----------
- target: Orexin receptor type 2 (Homo sapiens)
- runParameters: CHO, at 10 µM
- Description: Displacement of [125I]-orexin A from human OX2 receptor expressed in CHO cell membranes at 10 uM after 90 mins by scintillation counting
measuredAttribute: inhibition

>>> df
                                   compound  measuredattribute    reading
0  COC(=O)CN(C(C)=O)C(c1ccccc1)c1cc(Br)ccc1NC(=O)c1ccccc1Cl (stereo not given)         inhibition      > 70%
1  COc1ccc(CCNC(=O)Cn2c(-c3nonc3N)nc3ccccc32)cc1OC         inhibition      > 50%
2  CC(/C=C/c1ccccc1)=N/Nc1nc(Nc2ccccc2)nc(-n2nc(C)cc2C)n1         inhibition  20 to 40%
3  C=CCN1C(=O)C2(Nc3ccccc3C(=O)N2c2ccccc2OC)c2ccccc21 (stereo not given)         inhibition      > 50%
4  COc1ccc(Nc2nc(NCc3ccco3)nc(N/N=C\c3cc(Br)c(O)c(Br)c3)n2)cc1         inhibition  20 to 40%
5  COc1ccc(N(CC(=O)NC(C)c2ccccc2)S(=O)(=O)c2ccc(OC)c(OC)c2)cc1 (stereo not given)         inhibition      > 50%
6  Cc1ccc(C(O)(C(=O)NNc2cc(Cl)ccc2Cl)c2ccc(C)cc2)cc1         inhibition      > 50%
7  COc1ccccc1OCCNC[C@@H](O)COc1cccc2[nH]c3ccccc3c12 [(R)-Carvedilol]         inhibition      > 70%
8  CCOC(=O)c1c(NC(=O)C(C)Sc2nnc(CNC(=O)c3cc(OC)cc(OC)c3)n2-c2ccccc2OC)sc2c1CCC2 (stereo not given)         inhibition      > 50%
9  O=C(CSc1nnc(-c2cccs2)n1Cc1ccco1)Nc1ccc2c(c1)OCCO2         inhibition      > 50%

----------
Here the recorded Ki is given for each entry.
- target: Orexin receptor type 2 (Homo sapiens, UniProt O43614)
- Sequence (O43614 whole entry): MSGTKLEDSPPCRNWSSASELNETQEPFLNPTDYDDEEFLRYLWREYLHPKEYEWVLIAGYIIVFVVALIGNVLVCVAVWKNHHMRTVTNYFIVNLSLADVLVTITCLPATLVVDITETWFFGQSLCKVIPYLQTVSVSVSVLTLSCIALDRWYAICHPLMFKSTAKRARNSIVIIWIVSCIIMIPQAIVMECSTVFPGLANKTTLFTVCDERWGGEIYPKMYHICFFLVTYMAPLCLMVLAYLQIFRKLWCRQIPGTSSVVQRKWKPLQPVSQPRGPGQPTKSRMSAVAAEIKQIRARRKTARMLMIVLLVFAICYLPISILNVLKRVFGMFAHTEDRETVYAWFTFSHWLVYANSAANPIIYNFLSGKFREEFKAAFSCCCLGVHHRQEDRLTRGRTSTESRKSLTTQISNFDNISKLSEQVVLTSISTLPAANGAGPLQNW
- runDescription: Displacement of [125I]-orexin A from human OX2 receptor expressed in […] after 90 mins by scintillation counting
measuredAttribute: Ki (µM)

>>> df
                                   compound                                    target  measuredattribute  outputunit  reading
0  CCOC(=O)c1c(NC(=O)C(C)Sc2nnc(CNC(=O)c3cc(OC)cc(OC)c3)n2-c2ccccc2OC)sc2c1CCC2 (centres undefined)  Orexin receptor type 2 (Homo sapiens, UniProt O43614)                 Ki          µM      1.1
1  C=CCN1C(=O)C2(Nc3ccccc3C(=O)N2c2ccccc2OC)c2ccccc21 (centres undefined)  Orexin receptor type 2 (Homo sapiens, UniProt O43614)                 Ki          µM        1
2  O=C(CSc1nnc(-c2cccs2)n1Cc1ccco1)Nc1ccc2c(c1)OCCO2  Orexin receptor type 2 (Homo sapiens, UniProt O43614)                 Ki          µM      0.2
3  Cc1ccc(C(O)(C(=O)NNc2cc(Cl)ccc2Cl)c2ccc(C)cc2)cc1  Orexin receptor type 2 (Homo sapiens, UniProt O43614)                 Ki          µM      1.3
4  COC(=O)CN(C(C)=O)C(c1ccccc1)c1cc(Br)ccc1NC(=O)c1ccccc1Cl (centres undefined)  Orexin receptor type 2 (Homo sapiens, UniProt O43614)                 Ki          µM      2.5
5  COc1ccc(N(CC(=O)NC(C)c2ccccc2)S(=O)(=O)c2ccc(OC)c(OC)c2)cc1 (centres undefined)  Orexin receptor type 2 (Homo sapiens, UniProt O43614)                 Ki          µM      0.1
6  COc1ccc(CCNC(=O)Cn2c(-c3nonc3N)nc3ccccc32)cc1OC  Orexin receptor type 2 (Homo sapiens, UniProt O43614)                 Ki          µM      0.8
7  COc1ccccc1OCCNC[C@@H](O)COc1cccc2[nH]c3ccccc3c12 [(R)-Carvedilol]  Orexin receptor type 2 (Homo sapiens, UniProt O43614)                 Ki          µM      1.4
8  CC(/C=C/c1ccccc1)=N/Nc1nc(Nc2ccccc2)nc(-n2nc(C)cc2C)n1  Orexin receptor type 2 (Homo sapiens, UniProt O43614)                 Ki          µM     17.8
